Measured IC50 of individual entries
ASSAYED_TARGET: Recombinant HLA-A*201 (Homo sapiens, UniProt P04439, D140Y/D185E/D98H/E176V/E277Q/G131W/G231S/I119V/I121R/I166T/I218V/L300P/L318F/N151K/N90K/P208A/P217A/Q86G/Q94H/R138H/R169H/T345S)
EXPERIMENT_NOTES: biochemical
Assay type: binding
EXPERIMENTAL_PARAMETERS: 20°C, 48 h; standard peptide HBV core 47-56 (52->C); read-out: HLA-A2 Binding Affinity(IC50; µM)
Where a SMILES comes first, the peptide text is derived from it.
Just the number in µM, nothing appended.

Request: Need IC50 of CC[C@H](C)[C@H](NC(=O)[C@H](CCSC)NC(=O)[C@H](C)NC(=O)[C@H](CO)NC(=O)[C@H](CO)NC(=O)CNC(=O)[C@H](C)NC(=O)[C@H](CCSC)NC(=O)[C@@H](N)CO)C(=O)N[C@@H](CC(C)C)C(=O)O [126-135] (H-SMAGSSAMIL-OH) , thanks.
Response: 0.5

Request: Need IC50 of CC[C@H](C)[C@H](NC(=O)[C@@H](N)Cc1ccccc1)C(=O)N[C@@H](Cc1ccc(O)cc1)C(=O)N[C@@H](C)C(=O)NCC(=O)N[C@@H](CO)C(=O)N[C@@H](CC(C)C)C(=O)N[C@@H](CO)C(=O)N[C@@H](C)C(=O)O [143-151] (H-FIYAGSLSA-OH) , thanks.
Response: 0.4

Request: Need IC50 of CC(C)C[C@H](NC(=O)[C@H](Cc1c[nH]c2ccccc12)NC(=O)[C@H](CCC(N)=O)NC(=O)[C@@H]1CCCN1C(=O)[C@H](CC(C)C)NC(=O)[C@H](CCC(=O)O)NC(=O)[C@H](CO)NC(=O)[C@@H](NC(=O)[C@H](CC(C)C)NC(=O)[C@@H](N)Cc1ccccc1)[C@@H](C)O)C(=O)O [100-109] (H-FLTSELPQWL-OH) , thanks.
Response: 0.7

Request: Need IC50 of CC(C)C[C@H](NC(=O)[C@H](Cc1ccc(O)cc1)NC(=O)[C@H](CCC(=O)O)NC(=O)[C@@H](NC(=O)[C@@H]1CCCN1C(=O)[C@H](CC(C)C)NC(=O)CN)C(C)C)C(=O)N[C@@H](CCC(N)=O)C(=O)N[C@H](C(=O)O)C(C)C [5-13] (H-GLPVEYLQV-OH) , thanks.
Response: 7
